# Lookup of reported pEC50 keyed by entry
Assayed Target: CXCR7 (Homo sapiens (Human), UniProt P25106)
Sequence (P25106 whole entry): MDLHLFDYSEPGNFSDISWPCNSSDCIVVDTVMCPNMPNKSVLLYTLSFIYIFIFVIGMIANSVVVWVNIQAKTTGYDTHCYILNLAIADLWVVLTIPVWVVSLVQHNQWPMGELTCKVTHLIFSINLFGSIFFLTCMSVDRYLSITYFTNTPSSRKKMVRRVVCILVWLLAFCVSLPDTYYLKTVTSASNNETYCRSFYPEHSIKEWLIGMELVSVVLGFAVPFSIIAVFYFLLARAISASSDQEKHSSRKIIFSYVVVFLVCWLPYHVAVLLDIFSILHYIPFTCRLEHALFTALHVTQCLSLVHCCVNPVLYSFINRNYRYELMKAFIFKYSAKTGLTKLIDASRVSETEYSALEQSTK
Sequence (P32121 whole entry partner): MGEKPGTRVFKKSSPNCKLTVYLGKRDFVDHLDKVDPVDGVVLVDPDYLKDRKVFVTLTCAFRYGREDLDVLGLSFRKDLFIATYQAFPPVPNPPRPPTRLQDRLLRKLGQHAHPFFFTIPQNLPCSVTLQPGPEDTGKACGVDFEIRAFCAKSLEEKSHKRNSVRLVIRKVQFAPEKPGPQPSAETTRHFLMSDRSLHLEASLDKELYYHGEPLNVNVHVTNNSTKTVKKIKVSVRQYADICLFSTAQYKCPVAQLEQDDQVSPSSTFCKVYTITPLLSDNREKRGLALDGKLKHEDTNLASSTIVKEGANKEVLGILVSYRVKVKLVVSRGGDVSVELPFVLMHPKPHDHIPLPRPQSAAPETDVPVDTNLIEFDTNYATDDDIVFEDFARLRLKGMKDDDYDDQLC
Assay Notes: PathHunter CHO-K1 CXCR7 b-arrestin assay (agonistic activity)
Condition Info: PathHunter CHO-K1 CXCR7 b-arrestin cell line
Schema: pEC50 number; meaning minus log10 of the concentration expressed in molar units.

Before answering, review these 3 worked examples.
q: // map Cc1cc(C(=O)Nc2cccc(C(C)N3CCC(C(=O)NC4CCCCC4)CC3)c2)c2cnn(C(C)C)c2n1 (racemic) [Example 1.186] to recorded pEC50 (system: CXCR7 (Homo sapiens (Human), UniProt P25106))
a: 7.07

q: // map Cc1cncc(C(=O)Nc2cccc(CN3CCC(C(=O)NC(C)(C)C)C3)c2)c1 (racemic) [Example 2.096] to recorded pEC50 (system: CXCR7 (Homo sapiens (Human), UniProt P25106))
a: 7.55

q: // map O=C(Nc1cccc(CN2CCC(C(=O)NC3CCCCC3)CC2)c1)c1ccc[nH]1 [Example 1.046] to recorded pEC50 (system: CXCR7 (Homo sapiens (Human), UniProt P25106))
a: 8.30

Shift focus to the following entry.
q: // map COc1c(CN2CCC(C(=O)NC(C)(C)C)CC2)cccc1NC(=O)c1ccc(F)cc1 [Example 1.321] to recorded pEC50 (system: CXCR7 (Homo sapiens (Human), UniProt P25106))
a: 8.22

* * *

Assayed Target: CXCR7 (Homo sapiens (Human), UniProt P25106)
Assay Notes: PathHunter CHO-K1 CXCR7 b-arrestin assay (agonistic activity)
Condition Info: PathHunter CHO-K1 CXCR7 b-arrestin cell line
Parameter Measured: EC50 (nM)
Numeric only. Scale: nM

Before answering, review these 4 worked examples.
q: Item under review: CCN(CC)c1ccc(C(=O)Nc2cccc(CN3CCC(C(=O)NC4CCCCC4)CC3)c2)cn1 [Example 1.071] . Reported EC50?
a: 182

q: Item under review: CC(c1cccc(NC(=O)c2cccnc2)c1)N1CCC(C(=O)NC2CCCCC2)CC1 (racemic) [Example 1.171] . Reported EC50?
a: 150

q: Item under review: O=C(Nc1cccc(CN2CCC(C(=O)NC3CCCCC3)CC2)c1)c1cnc2[nH]ccc2c1 [Example 1.076] . Reported EC50?
a: 26

q: Item under review: CC(C)CN(C)C(=O)C1CCN(Cc2cccc(NC(=O)c3cncc(F)c3)c2)CC1 [Example 1.277] . Reported EC50?
a: 18

Next:
q: Item under review: Cc1cncc(C(=O)Nc2nc(CN3CCC(C(=O)NC4CCCC4)CC3)cs2)c1 [Example 1.294] . Reported EC50?
a: 408

q: Item under review: Cc1ccc(C(=O)Nc2cccc(C(C)N3CCC(C(=O)NC4CCCCC4)CC3)c2)cn1 (racemic) [Example 1.181] . Reported EC50?
a: 148

q: Item under review: Cc1nc(CC(=O)Nc2cccc(CN3CCC(C(=O)NC(C)(C)C)CC3)c2)c(C)s1 [Example 1.261] . Reported EC50?
a: 2

q: Item under review: Cn1cc(CC(=O)Nc2cccc(CN3CCC(C(=O)NC4CCCCC4)CC3)c2)c2ccccc21 [Example 1.030] . Reported EC50?
a: 18

q: Item under review: O=C(Nc1cccc(CN2CCC(C(=O)NC3CCCCC3)CC2)c1)c1ccno1 [Example 1.049] . Reported EC50?
a: 7

q: Item under review: O=C(Nc1cccc(CN2CCC(C(=O)NC3CCCCC3)CC2)c1)c1ccccc1F [Example 1.102] . Reported EC50?
a: 4

Values were extracted from patent US9428456B2.
